viability, T/C by entry:
- System: 422866-222-R5-J1-PDC spheroid viability;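 also: spheroids exposed to agents for seven days before readout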
- assay_text: Anticancer human tumor 422866-222-R5-J1-PDC patient-derived pancreatic adenocarcinoma cell line growth inhibition [CLK]
- condition_details: second compound 0.316 µM; first compound 0.1 µM; stronger effect = lower value; spheroids with HUVEC and MSC

{"columns": ["compound", "viability, T/C / %"],
 "data": [
  ["COc1ccc([C@@H](O)c2cc(-c3ncnc4cc(N5CCOCC5)ccc34)c(F)cc2Cl)nn1 + CN1CCN(c2cc(C(=O)Nc3cc4cc(-c5cnn(C)c5)ccc4cn3)ccn2)CC1", 87.8],
  ["Nc1ccccc1NC(=O)c1ccc(CNC(=O)OCc2cccnc2)cc1 + CN1CCN(c2cc(C(=O)Nc3cc4cc(-c5cnn(C)c5)ccc4cn3)ccn2)CC1", 95.5],
  ["CC(Nc1ccc2c(c1)OCCn1cc(N3C(=O)OCC3C(F)F)nc1-2)C(N)=O (centres undefined) + CNC(=O)c1ccc(Nc2nc(OC3CCCC3)c3c(-c4ccc5nc(C)oc5c4)c[nH]c3n2)c(OC)c1", 49.1],
  ["C#Cc1c(F)ccc2cc(O)cc(-c3ncc4c(N5CC6CCC(C5)N6)nc(OCC56CCCN5CC(F)C6)nc4c3F)c12 (centres undefined) + CN1CCN(c2cc(C(=O)Nc3cc4cc(-c5cnn(C)c5)ccc4cn3)ccn2)CC1", 83.4]
]}
